- Experimental Target: SARS-CoV-2 nsp13 NTPase activity (Severe acute respiratory syndrome coronavirus 2, UniProt P0DTD1)
- Protocol Description: biochemical
- Type: biochemical
Record Criterion met whenever DTT Helicase ATPase activity PLUS DNA substrate 2 µM is at 80 or higher; record Criterion not met when lower.

Take a look at these entries with their results.
Compound	Discrete Label
O=C(O[C@@H]1Cc2c(O)cc(O)cc2O[C@@H]1c1cc(O)c(O)c(O)c1)c1cc(O)c(O)c(O)c1 [(−)-epigallocatechin gallate]	Criterion not met
Cc1ccc(C(=O)Nc2ccc(S(=O)(=O)O)c3cc(S(=O)(=O)O)cc(S(=O)(=O)O)c23)cc1NC(=O)c1cccc(NC(=O)Nc2cccc(C(=O)Nc3cc(C(=O)Nc4ccc(S(=O)(=O)O)c5cc(S(=O)(=O)O)cc(S(=O)(=O)O)c45)ccc3C)c2)c1 [suramin hexasodium]	Criterion not met
O=c1c(O)c(-c2cc(O)c(O)c(O)c2)oc2cc(O)cc(O)c12 [myricetin (cannabiscetin), myricetin]	Criterion not met

Next, consider the following compound.
q: Quick check, DTT Helicase ATPase activity PLUS DNA substrate 2 µM >= 80? O=C(Nc1ccc2c(O)cc(S(=O)(=O)[O-])cc2c1)Nc1ccc2c(O)cc(S(=O)(=O)[O-])cc2c1.[Na+].[Na+]
a: Criterion met

----------
- Experimental Target: SARS-CoV-2 RdRp nsp12/7/8 complex (Severe acute respiratory syndrome coronavirus 2, UniProt P0DTD1)
- Protocol Description: biochemical
- Assay type: biochemical
- Measurement Setup: read-out: RdRp Inhibition [%] 20 µM (PS Inhibition RdRp [%])
Recorded Endpoint: inhibition at 20 µM

Compound	Recorded Endpoint	Result
CO[C@H](C(=O)[C@@H](O)[C@@H](C)O)[C@@H]1Cc2cc3cc(O[C@H]4C[C@@H](O[C@H]5C[C@@H](O)[C@H](O)[C@@H](C)O5)[C@H](O)[C@@H](C)O4)c(C)c(O)c3c(O)c2C(=O)[C@H]1O[C@H]1C[C@@H](O[C@H]2C[C@@H](O[C@H]3C[C@](C)(O)[C@H](O)[C@@H](C)O3)[C@@H](O)[C@@H](C)O2)[C@H](O)[C@@H](C)O1	inhibition at 20 µM	6.39%
Cc1cc(N)c2ccccc2[n+]1CCCCCCCCCC[n+]1c(C)cc(N)c2ccccc21 [dequalinium chloride]	inhibition at 20 µM	94.6%

Below: the item to evaluate.
q: Supply recorded inhibition at 20 µM for O=c1c(O)c(-c2ccc(O)c(O)c2)oc2cc(O)ccc12 here.
a: 95.8%

----------
- Experimental Target: SARS-CoV-2 RdRp nsp12/7/8 complex (Severe acute respiratory syndrome coronavirus 2, UniProt P0DTD1)
- Protocol Description: biochemical
- Format: biochemical
- Measurement Setup: read-out: RdRp Inhibition [%] 20 µM (PS Inhibition RdRp [%])
Recorded Endpoint: inhibition at 20 µM
Value and unit, in that order.

Here are 5 compounds together with their reported answers.
Compound	inhibition at 20 µM
O=C(O)c1cc(/N=N/c2ccc(O)c(C(=O)O)c2)ccc1O [olsalazine sodium]	84.7%
O=C(N/N=C/c1ccc(O)c(O)c1)c1cc2ccccc2cc1O	96.1%
Cc1c(Cl)c(C)[n+]([O-])c(Cl)c1-c1noc(-c2cc(O)c(O)c([N+](=O)[O-])c2)n1	17.9%
O=C(N/N=C/c1ccc([N+](=O)[O-])o1)c1cc([N+](=O)[O-])cc([N+](=O)[O-])c1O	100%
CC1=NN(c2ccc(C)c(C)c2)C(=O)/C1=N\Nc1cccc(-c2cccc(C(=O)O)c2)c1O	95.2%

q: Supply recorded inhibition at 20 µM for CN(C)[C@@H]1C(O)=C(C(N)=O)C(=O)[C@@]2(O)C(O)=C3C(=O)c4c(O)cccc4[C@@](C)(O)[C@H]3[C@H](O)[C@@H]12 here.
a: 100%

----------
Readings of DTT Helicase ATPase activity [%] 2 µM for the listed molecules
- Experimental Target: SARS-CoV-2 nsp13 NTPase activity (Severe acute respiratory syndrome coronavirus 2, UniProt P0DTD1)
- Protocol Description: biochemical
- Type: biochemical

Here are 5 molecules together with their reported answers.
Molecule	DTT Helicase ATPase activity [%] 2 µM
O=C(c1cc(O)c(O)c(O)c1)c1ccc(O)c(O)c1O	14.53%
Cc1ccc(C(=O)Nc2ccc(S(=O)(=O)O)c3cc(S(=O)(=O)O)cc(S(=O)(=O)O)c23)cc1NC(=O)c1cccc(NC(=O)Nc2cccc(C(=O)Nc3cc(C(=O)Nc4ccc(S(=O)(=O)O)c5cc(S(=O)(=O)O)cc(S(=O)(=O)O)c45)ccc3C)c2)c1 [suramin hexasodium]	121.61%
O=C(O[C@@H]1Cc2c(O)cc(O)cc2O[C@@H]1c1cc(O)c(O)c(O)c1)c1cc(O)c(O)c(O)c1 [(−)-epigallocatechin gallate]	43.42%
O=c1c(O)c(-c2cc(O)c(O)c(O)c2)oc2cc(O)cc(O)c12	62.36%
O=C(Nc1ccc2c(O)cc(S(=O)(=O)[O-])cc2c1)Nc1ccc2c(O)cc(S(=O)(=O)[O-])cc2c1.[Na+].[Na+]	103.17%

q: Supply recorded DTT Helicase ATPase activity [%] 2 µM for CO[C@H](C(=O)[C@@H](O)[C@@H](C)O)[C@@H]1Cc2cc3cc(O[C@H]4C[C@@H](O[C@H]5C[C@@H](O)[C@H](O)[C@@H](C)O5)[C@H](O)[C@@H](C)O4)c(C)c(O)c3c(O)c2C(=O)[C@H]1O[C@H]1C[C@@H](O[C@H]2C[C@@H](O[C@H]3C[C@](C)(O)[C@H](O)[C@@H](C)O3)[C@@H](O)[C@@H](C)O2)[C@H](O)[C@@H](C)O1 here.
a: 114.66%

q: Supply recorded DTT Helicase ATPase activity [%] 2 µM for CC1(C)C(/C=C/C=C/C=C/C=C2\N(CCCCS(=O)(=O)O)c3ccc4ccccc4c3C2(C)C)=[N+](CCCCS(=O)(=O)[O-])c2ccc3ccccc3c21 here.
a: 60.43%

----------
- Experimental Target: SARS-CoV-2 helicase (nsp13) (Severe acute respiratory syndrome coronavirus 2)
- Protocol Description: biochemical
- Type: biochemical
- Measurement Setup: DTT Helicase IC50 [µM]
Recorded Endpoint: IC50 (µM)
Please give a number only; it is taken to be in µM.

Compound	IC50, µM
CO[C@H](C(=O)[C@@H](O)[C@@H](C)O)[C@@H]1Cc2cc3cc(O[C@H]4C[C@@H](O[C@H]5C[C@@H](O)[C@H](O)[C@@H](C)O5)[C@H](O)[C@@H](C)O4)c(C)c(O)c3c(O)c2C(=O)[C@H]1O[C@H]1C[C@@H](O[C@H]2C[C@@H](O[C@H]3C[C@](C)(O)[C@H](O)[C@@H](C)O3)[C@@H](O)[C@@H](C)O2)[C@H](O)[C@@H](C)O1	1.35
Cc1c(Cl)c(C)[n+]([O-])c(Cl)c1-c1noc(-c2cc(O)c(O)c([N+](=O)[O-])c2)n1	25.5

q: Supply recorded IC50 for Cc1ccc(C(=O)Nc2ccc(S(=O)(=O)O)c3cc(S(=O)(=O)O)cc(S(=O)(=O)O)c23)cc1NC(=O)c1cccc(NC(=O)Nc2cccc(C(=O)Nc3cc(C(=O)Nc4ccc(S(=O)(=O)O)c5cc(S(=O)(=O)O)cc(S(=O)(=O)O)c45)ccc3C)c2)c1 [suramin hexasodium] here.
a: 5.42

----------
- Experimental Target: SARS-CoV-2 helicase (Severe acute respiratory syndrome coronavirus 2, UniProt P0DTD1)
- Format: binding
Recorded Endpoint: Helicase Tm °C 100 µM (°C)
Please give a number only; it is taken to be in °C.

Compound	Helicase Tm °C 100 µM (°C)
O=c1c(O)c(-c2cc(O)c(O)c(O)c2)oc2cc(O)cc(O)c12	38.8
O=C(c1cc(O)c(O)c(O)c1)c1ccc(O)c(O)c1O	37.8
CO[C@H](C(=O)[C@@H](O)[C@@H](C)O)[C@@H]1Cc2cc3cc(O[C@H]4C[C@@H](O[C@H]5C[C@@H](O)[C@H](O)[C@@H](C)O5)[C@H](O)[C@@H](C)O4)c(C)c(O)c3c(O)c2C(=O)[C@H]1O[C@H]1C[C@@H](O[C@H]2C[C@@H](O[C@H]3C[C@](C)(O)[C@H](O)[C@@H](C)O3)[C@@H](O)[C@@H](C)O2)[C@H](O)[C@@H](C)O1	38.9
O=C(O[C@@H]1Cc2c(O)cc(O)cc2O[C@@H]1c1cc(O)c(O)c(O)c1)c1cc(O)c(O)c(O)c1 [(−)-epigallocatechin gallate]	39.6

q: Supply recorded Helicase Tm °C 100 µM for Cc1ccc(C(=O)Nc2ccc(S(=O)(=O)O)c3cc(S(=O)(=O)O)cc(S(=O)(=O)O)c23)cc1NC(=O)c1cccc(NC(=O)Nc2cccc(C(=O)Nc3cc(C(=O)Nc4ccc(S(=O)(=O)O)c5cc(S(=O)(=O)O)cc(S(=O)(=O)O)c45)ccc3C)c2)c1 [suramin hexasodium] here.
a: 36.5

Values compiled from paper PMC10958470.
